target: T1, DR3 (CRD1)-Fc (human); experiment: SPR Biacore T200, DR3(CRD1)-Fc captured by anti-human IgG, Fab as analyte, 25 C, 1:1 model, mean of 3 surface densities
T1 construct: Amino acids 25-71 of DR3 fused to the Fc domain of human IgG4; purified to exclude oligomers (mainly dimeric)
T1 sequence (chain, as listed by the source limits assumed): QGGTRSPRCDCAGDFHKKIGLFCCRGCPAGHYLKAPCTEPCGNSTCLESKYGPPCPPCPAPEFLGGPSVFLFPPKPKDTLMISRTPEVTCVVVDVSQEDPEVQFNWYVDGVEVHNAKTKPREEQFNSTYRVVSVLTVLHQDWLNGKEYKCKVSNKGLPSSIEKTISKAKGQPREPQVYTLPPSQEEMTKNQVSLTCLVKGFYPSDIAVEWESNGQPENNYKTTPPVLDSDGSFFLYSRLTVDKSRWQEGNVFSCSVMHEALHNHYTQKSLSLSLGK
attributeMeasured: koff (s⁻¹)

| binder | attributeMeasured | endpointValue |
| --- | --- | --- |
| 0143 (chimeric Fab of 44F434, human IgG4 constant domain, hinge Cys->Ser) (Fab, V domains shown, IgG4-Ser, chimeric) VH: EVQLVESGGDLVMPGGSLKLSCAASGFIFSSYGLSWIRQTPDKRLEWVATISGGDSYTYYPDSVKGRFTISSDNAKNTLYLQMTSLKSEDTAMYYCATQREIYYGTYYALDHWGQGTSVTVSS VL: DIQMTQTTSSLSASLGDRVTISCRASQDINNYLNWYQQKPDGTVKLLIYYTSRLQSGVPSRFSGSGSGTDYSLTISSLEQDDIATYFCQQGSPLPWTFGGGTKLEIKR | koff | 5.1e-06 |
| 0219 (humanized Fab of 27F44, IgG1, S49A HC) (Fab, V domains shown, Human IgG1 constant part) VH: EVQLVESGGGLVQPGGSLRLSCAASGFTFSNYDMSWVRQATGKGLEWVAAFSSDGYTFYPGSVKGRFTISRENAKNSLYLQMNSLRAGDTAVYYCARHADYANYPVMDYWGQGTLVTVSS VL: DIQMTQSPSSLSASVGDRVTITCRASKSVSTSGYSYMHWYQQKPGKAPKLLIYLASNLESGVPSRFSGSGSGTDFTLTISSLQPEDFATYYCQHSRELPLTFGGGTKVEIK | koff | 3.06e-05 |
| 0130 (recombinant murine Fab of 45F36) (Fab, V domains shown, murine Fab; also called 00130) VH: EVQLVESGGGLVKPGGSLKLSCAASGFTFSSYAMSWVRQSPDKRLEWVAEISSGDTYTYYPDTVTGRFTISRDNAKKTLYLEMSGLRSEDTAMYYCARDREAYYGQQYVMDYWGQGTSVTVSS VL: DIVLTQSPASLAVSLGLSVTISCRASESIEYSGTSFLQWYQQKPGQPPRLLIYGSSTVESGVPARFSGSGSGTDFSLNIHPVEEDDSAMYFCQQSRRLPWTFGGGTKLEIKR | koff | 0.000208 |
